The measured values listed here are drawn from paper PMC12416549.

Recorded apparent Kd (screen) by entry
Biological target: T1, TNFR1 (Homo sapiens, UniProt P19438)
T1 chain: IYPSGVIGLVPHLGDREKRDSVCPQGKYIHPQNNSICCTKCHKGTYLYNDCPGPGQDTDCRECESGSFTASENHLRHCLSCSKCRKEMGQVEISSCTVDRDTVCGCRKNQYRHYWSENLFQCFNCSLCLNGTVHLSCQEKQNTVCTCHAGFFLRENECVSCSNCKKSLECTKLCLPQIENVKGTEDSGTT
Assay: yeast display SC50
Please give a number only; it is taken to be in nM.

{"binder": "E46R (designed binder) MTLQELLREEALRRAEAEAFRYALELLAEKFPEQKEYLLDLAEEIRSQIRSLSGVDVEDVRKFLDKEWAWVKELLAEHPAELAEVEAARAARLAELRAEVEAKVAA", "apparent Kd (screen), nM": 0.718}

Please turn your attention to the following entry.
Per the record, L41G (designed binder) MTLQELLREEALRRAEAEAFRYALELLAEKFPEQKEYLLDGAEEIESQIRSLSGVDVEDVRKFLDKEWAWVKELLAEHPAELAEVEAARAARLAELRAEVEAKVAA has apparent Kd (screen) of 12.5
